Biological target: Protein translocase subunit SecA (Escherichia coli (strain K12)) (UniProt P10408)
Sequence (P10408 whole entry): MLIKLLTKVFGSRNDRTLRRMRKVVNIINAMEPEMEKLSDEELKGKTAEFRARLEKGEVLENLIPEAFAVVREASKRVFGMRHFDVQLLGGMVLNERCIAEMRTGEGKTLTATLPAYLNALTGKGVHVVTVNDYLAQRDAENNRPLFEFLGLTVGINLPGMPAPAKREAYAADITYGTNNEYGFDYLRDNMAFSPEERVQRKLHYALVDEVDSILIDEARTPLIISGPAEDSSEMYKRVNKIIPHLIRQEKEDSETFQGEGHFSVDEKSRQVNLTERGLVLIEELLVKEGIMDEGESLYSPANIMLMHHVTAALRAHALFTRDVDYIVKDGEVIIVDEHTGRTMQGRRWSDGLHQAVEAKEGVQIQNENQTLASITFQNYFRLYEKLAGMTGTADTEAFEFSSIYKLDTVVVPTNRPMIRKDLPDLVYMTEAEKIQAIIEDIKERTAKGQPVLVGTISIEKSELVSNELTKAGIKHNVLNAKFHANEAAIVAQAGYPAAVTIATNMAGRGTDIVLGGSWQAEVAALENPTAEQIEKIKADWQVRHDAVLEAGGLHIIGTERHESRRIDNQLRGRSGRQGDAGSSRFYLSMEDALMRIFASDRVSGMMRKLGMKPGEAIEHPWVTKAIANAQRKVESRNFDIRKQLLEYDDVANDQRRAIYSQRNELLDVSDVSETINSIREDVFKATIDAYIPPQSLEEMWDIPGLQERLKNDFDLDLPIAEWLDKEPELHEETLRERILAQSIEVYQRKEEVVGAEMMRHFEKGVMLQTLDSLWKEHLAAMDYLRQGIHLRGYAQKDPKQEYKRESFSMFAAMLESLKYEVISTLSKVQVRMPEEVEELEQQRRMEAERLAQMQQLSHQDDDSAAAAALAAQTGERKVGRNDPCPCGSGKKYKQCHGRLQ
Assay: Assay to Identify E. coli SecA ATPase Inhibitors
Type: functional
Parameters: scale not given: direction of the effect not stated beside the values
Conditions: 30 µM
Results with a measured potency or affinity are listed apart.
parameter: Percent Effect (%)
Provide only the numeric value, understood in %.

Field: example entries. Status: answers known.
[
  {
    "molecule": "CCc1noc(C(C)N(C)CC(=O)Nc2ccc(C)cc2)n1 (centres undefined)",
    "Percent Effect (%)": -4.41
  },
  {
    "molecule": "Cc1noc(CCCC(=O)NC(C)c2cccnc2)n1 (centres undefined)",
    "Percent Effect (%)": 0.699
  },
  {
    "molecule": "CCC1CN(Cc2ccccc2)CCN1Cc1nnc(C2CCC2)o1 (centres undefined)",
    "Percent Effect (%)": -1.22
  }
]

Here's the next entry for you.
Consider the molecule shown here: CCOc1ccccc1OC1CCN(C(=O)c2cc[nH]n2)CC1 What is its recorded Percent Effect?
-5.63

* * *

Listed here: items and their measured Percent Effect.
Molecular target: Proteasome subunit beta (Trypanosoma cruzi) (UniProt O96673)
Sequence (whole entry): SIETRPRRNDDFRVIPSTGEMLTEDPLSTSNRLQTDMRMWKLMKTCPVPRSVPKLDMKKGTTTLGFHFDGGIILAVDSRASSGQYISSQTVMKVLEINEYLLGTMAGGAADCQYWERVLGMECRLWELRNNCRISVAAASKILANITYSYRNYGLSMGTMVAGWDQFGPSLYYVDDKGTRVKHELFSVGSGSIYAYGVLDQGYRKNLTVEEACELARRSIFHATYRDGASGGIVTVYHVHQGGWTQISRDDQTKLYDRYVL
Test: Trypanosoma cruzi proteasome chymotrypsin-like activity (TcProtChymo) assay. Also: in the data most compounds retested in dose-response had high values.
Assay type: functional
Parameters: scale not given: direction of the effect not stated beside the values
Details: 9.37 µM
Provide only the numeric value, understood in %.

Field: example entries. Status: answers known.
[
  {
    "molecule": "COc1cc(CNC2CCc3nc(C(C)C)nn3C2)cc2c1OCO2 (stereo not given)",
    "readout unit": "%",
    "observed result": -0.592
  },
  {
    "molecule": "COc1ccc(C2Nc3ccccc3C3=NCCCN32)cc1OC (stereo not given)",
    "readout unit": "%",
    "observed result": -2.91
  },
  {
    "molecule": "CN1CCN(C[C@@H]2OC[C@H]3CN(Cc4cccc(F)c4)CC[C@H]32)CC1",
    "readout unit": "%",
    "observed result": 7.01
  },
  {
    "molecule": "Cc1noc(CN2CCN(CC(C)O)CC2)n1 (stereo not given)",
    "readout unit": "%",
    "observed result": 9.21
  },
  {
    "molecule": "c1cnnc(N2CCCC2CNCc2cnc(N3CCCC3)nc2)c1 (stereo not given)",
    "readout unit": "%",
    "observed result": 4.8
  },
  {
    "molecule": "CCc1nc(CN(C)CC2CCN(CCO)CC2)no1",
    "readout unit": "%",
    "observed result": -1.55
  },
  {
    "molecule": "CN(CCO)Cc1nnc(C2CCN(C3CCCCC3)CC2)n1C",
    "readout unit": "%",
    "observed result": 18.1
  },
  {
    "molecule": "COc1cccc(CN(C)S(=O)(=O)N2CCOCC2)c1",
    "readout unit": "%",
    "observed result": 22.1
  },
  {
    "molecule": "O=C(CN1C=Nc2ccccc2S1(=O)=O)NCCc1cccs1",
    "readout unit": "%",
    "observed result": 9.56
  },
  {
    "molecule": "O=C(CC1CC1)NCc1cn2c(n1)CN(C(=O)c1cccnc1)CC2",
    "readout unit": "%",
    "observed result": 2.73
  }
]

Consider the molecule shown here: CN(CC(=O)NC1(C#N)CCCC1)C1CCCN(c2cccnn2)C1 (stereo not given) What is its recorded Percent Effect?
11.6

Consider the molecule shown here: O=C(c1cccc(=O)[nH]1)N(Cc1ccsc1)CC1CCCO1 (stereo not given) What is its recorded Percent Effect?
12.8

Consider the molecule shown here: COC(=O)CCN1CCCC1c1ccccc1Cl (stereo not given) What is its recorded Percent Effect?
5.41

Consider the molecule shown here: O=C(NC[C@H]1OC[C@@H]2CCN(C(=O)c3ccco3)C[C@@H]21)C1CC1 What is its recorded Percent Effect?
10.6

Consider the molecule shown here: Cc1nc(CN(C)C2CCN(Cc3ccc4c(c3)OCCO4)C2)no1 (stereo not given) What is its recorded Percent Effect?
2.83

Consider the molecule shown here: O=C(CCc1ccccn1)N1CCc2cc(Cl)cc(Cl)c2C1 What is its recorded Percent Effect?
15

Consider the molecule shown here: Cc1cc(C(=O)N2Cc3ccccc3OC3(CCOCC3)C2)nc(N)n1 What is its recorded Percent Effect?
22.9

Consider the molecule shown here: Cc1cn2nc(N3CCCN(Cc4noc(C)n4)CC3)sc2n1 What is its recorded Percent Effect?
13.4

Consider the molecule shown here: COc1cccc(COCC(=O)N2CCCC(c3nncn3C)C2)c1 (stereo not given) What is its recorded Percent Effect?
0.721

Consider the molecule shown here: COc1ccc(C2CCCN2C(=O)c2cc3c([nH]c2=O)CCC3)cc1 (stereo not given) What is its recorded Percent Effect?
17.5

Consider the molecule shown here: Cc1cc(=O)n2ncnc2n1CC(O)c1ccccc1Cl (stereo not given) What is its recorded Percent Effect?
18.1

Consider the molecule shown here: Cc1ncc(C(=O)N2C[C@H]3CC[C@@H]2CN(S(=O)(=O)N(C)C)C3)c(C)n1 What is its recorded Percent Effect?
17.3

Consider the molecule shown here: CCN(CCn1cccn1)Cc1nc(-c2ccccc2F)oc1C What is its recorded Percent Effect?
5.61

Consider the molecule shown here: Cc1ccc2c(c1)c(CNC(=O)C1CC(=O)N(C3CCCC3)C1)nn2C (stereo not given) What is its recorded Percent Effect?
21

Consider the molecule shown here: CNc1nc(C(=O)N2CCCC(c3nccn3CC3CCC3)C2)cs1 (stereo not given) What is its recorded Percent Effect?
7.81

* * *

Molecular target: Tyrosyl-tRNA synthetase, putative (Trypanosoma cruzi (strain CL Brener))
Experiment: Trypanosoma cruzi tyrosyl tRNA synthetase (TcYRS) SOP
Format: functional
Set-up: scale not given: direction of the effect not stated beside the values
Settings: 30 µM
Listed here: items and their measured Percent Effect.
Provide only the numeric value, understood in %.

Field: example entries. Status: answers known.
[
  {
    "molecule": "COc1ccc(NC(=O)CNc2cccc3c2CCCC3)c(OC)c1",
    "Percent Effect, %": -11.1
  },
  {
    "molecule": "CN(C)S(=O)(=O)N1CCC2(COCc3cnc(-c4ccccc4)nc32)C1 (stereo not given)",
    "Percent Effect, %": 2.5
  },
  {
    "molecule": "Cc1nc(C)n(CC2CN(c3nnc(C)c(C)c3C#N)CCO2)n1 (stereo not given)",
    "Percent Effect, %": 12.2
  },
  {
    "molecule": "O=S(=O)(NCC1CCN(c2ccccn2)CC1)c1ccccc1F",
    "Percent Effect, %": 14.1
  },
  {
    "molecule": "CC(=O)Nc1nc(C(=O)NC(C)c2ccc(F)cc2)cs1 (stereo not given)",
    "Percent Effect, %": 21.2
  }
]

Consider the molecule shown here: COc1cc(CN(C(=O)Nc2cccnc2OC)C2CC2)ccc1O What is its recorded Percent Effect?
12.2

Consider the molecule shown here: Cc1ccc(NC2CCN(C(=O)CN(C)C3CC3)CC2)nn1 What is its recorded Percent Effect?
7.59

Consider the molecule shown here: Cn1ncc2c(NCCOc3ccc(F)cc3)nc(C3CCCC3)nc21 What is its recorded Percent Effect?
10

Consider the molecule shown here: COCC(=O)N1CC[C@@H]2O[C@@H](COCc3csc(C)n3)CC[C@@H]21 What is its recorded Percent Effect?
12.8

Consider the molecule shown here: O=C(c1ccc[nH]1)N1CCc2c(COCC3CC3)cncc2C1 What is its recorded Percent Effect?
12.8

* * *

Listed here: items and their measured Percent Effect.
Molecular target: Tyrosyl-tRNA synthetase, putative (Trypanosoma cruzi (strain CL Brener))
Sequence (whole entry): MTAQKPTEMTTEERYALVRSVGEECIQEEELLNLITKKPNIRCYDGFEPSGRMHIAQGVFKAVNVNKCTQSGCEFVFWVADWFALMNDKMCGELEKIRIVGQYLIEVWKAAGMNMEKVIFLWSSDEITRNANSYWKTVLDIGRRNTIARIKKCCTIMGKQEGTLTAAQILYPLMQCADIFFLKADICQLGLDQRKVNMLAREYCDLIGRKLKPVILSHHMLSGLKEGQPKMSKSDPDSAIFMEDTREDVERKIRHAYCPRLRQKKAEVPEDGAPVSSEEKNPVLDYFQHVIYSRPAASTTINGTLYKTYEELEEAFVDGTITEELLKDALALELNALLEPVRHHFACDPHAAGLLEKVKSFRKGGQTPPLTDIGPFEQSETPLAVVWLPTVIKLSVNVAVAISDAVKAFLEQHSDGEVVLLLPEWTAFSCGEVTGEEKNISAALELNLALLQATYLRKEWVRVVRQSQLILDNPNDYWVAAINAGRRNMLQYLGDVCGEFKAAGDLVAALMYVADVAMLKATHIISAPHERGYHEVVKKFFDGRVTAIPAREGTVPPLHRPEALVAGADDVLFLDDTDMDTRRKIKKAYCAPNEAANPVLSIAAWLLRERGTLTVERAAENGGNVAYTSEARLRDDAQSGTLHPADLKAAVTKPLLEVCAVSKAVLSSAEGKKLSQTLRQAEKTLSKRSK
Experiment: Trypanosoma cruzi tyrosyl tRNA synthetase (TcYRS) SOP
Assay type: functional
Parameters: scale not given: direction of the effect not stated beside the values
Settings: 30 µM
Provide only the numeric value, understood in %.

Field: example entries. Status: answers known.
[
  {
    "compound": "O=C(c1cccs1)N1CCC(n2nc(-c3ccco3)ccc2=O)CC1",
    "parameter": "Percent Effect",
    "observed result": 16.9
  },
  {
    "compound": "COc1ccccc1C(=O)NC(C)CC(=O)O (stereo unspecified)",
    "parameter": "Percent Effect",
    "observed result": 15.2
  },
  {
    "compound": "CCN(Cc1cccc(Cl)c1)Cn1nc(C)c2c(C)onc2c1=O",
    "parameter": "Percent Effect",
    "observed result": 1.24
  },
  {
    "compound": "CC(C(=O)Nc1cccc(N2CCCCC2)c1)n1cncn1 (stereo unspecified)",
    "parameter": "Percent Effect",
    "observed result": 23.5
  },
  {
    "compound": "CCc1nnc2n1CCN(C(=O)c1ccc3nc(C)c(C)nc3c1)C2",
    "parameter": "Percent Effect",
    "observed result": 15.4
  }
]

Here's the next entry for you.
Consider the compound shown here: Cn1nccc1-c1ccc2nc(C3CCN(CCO)CC3)nn2c1 What is its recorded Percent Effect?
22.5
